system: SK-MEL-28; assay: NCI tumour cell line growth inhibition, 48 h
Calls of active or inactive are those of the source. Rule as the data show it: active = GI50 up to about 1.1 µM and inactive = higher.
observed property: GI50

Field: example entries. Status: answers known.
{"columns": ["compound", "GI50"],
 "data": [
  ["COC(=O)c1sc2ncc3c(c2c1N)CCCCCC3", "> 100 µM (inactive)"],
  ["Cc1nnc(Nc2ccc(Cl)cc2)o1", "> 10 µM (inactive)"],
  ["COc1ccc(C(=O)/C=C/c2ccc(OCC(=O)N3CCN(c4ccccc4)CC3)cc2)cc1OC", "6.68 µM (inactive)"],
  ["CCOC(=O)c1ccc(NC(=O)O/N=C(/Cl)CCl)cc1", "17.6 µM (inactive)"],
  ["COc1ccc(N2C(=O)C3c4[nH]c5ccc(OCc6ccccc6)cc5c4C4CCC(C(C)C)CC4C3C2=O)cc1 (stereo not given)", "> 100 µM (inactive)"]
]}

Provide reported GI50 for each item, in the same order as listed.
1. CCCCSc1n/c(=C\c2ccc(N(C)C)cc2)c2nnnn12
2. O=[N+]([O-])c1ccc(/N=N\c2c(O)c(S(=O)(=O)O)cc3cc(S(=O)(=O)O)ccc23)cc1

### Response
> 100 µM (inactive)
> 100 µM (inactive)

Provide reported GI50 for each item, in the same order as listed.
1. COc1ccc2nc3cc([N+](=O)[O-])ccc3c(Nc3ccc(S(=O)(=O)N=C(N)N)cc3)c2c1
2. C=C(CCC(C(=O)O)C1CCC2(C)C3=C(CCC12C)C1(C)CCC(O)C(C)(C)C1CC3)C(C)C (stereo not given)
3. O=c1c2ccc(Cl)cc2oc2c(CSc3ccccc3)cccc12

### Response
> 100 µM (inactive)
33.3 µM (inactive)
> 53.1 µM (inactive)
